Please go through the items and note down their pIC50.
- Assay system: human αVβ6 (Homo sapiens, UniProt P06756+P18564)
- Sequence (P06756 31-992 limits assumed): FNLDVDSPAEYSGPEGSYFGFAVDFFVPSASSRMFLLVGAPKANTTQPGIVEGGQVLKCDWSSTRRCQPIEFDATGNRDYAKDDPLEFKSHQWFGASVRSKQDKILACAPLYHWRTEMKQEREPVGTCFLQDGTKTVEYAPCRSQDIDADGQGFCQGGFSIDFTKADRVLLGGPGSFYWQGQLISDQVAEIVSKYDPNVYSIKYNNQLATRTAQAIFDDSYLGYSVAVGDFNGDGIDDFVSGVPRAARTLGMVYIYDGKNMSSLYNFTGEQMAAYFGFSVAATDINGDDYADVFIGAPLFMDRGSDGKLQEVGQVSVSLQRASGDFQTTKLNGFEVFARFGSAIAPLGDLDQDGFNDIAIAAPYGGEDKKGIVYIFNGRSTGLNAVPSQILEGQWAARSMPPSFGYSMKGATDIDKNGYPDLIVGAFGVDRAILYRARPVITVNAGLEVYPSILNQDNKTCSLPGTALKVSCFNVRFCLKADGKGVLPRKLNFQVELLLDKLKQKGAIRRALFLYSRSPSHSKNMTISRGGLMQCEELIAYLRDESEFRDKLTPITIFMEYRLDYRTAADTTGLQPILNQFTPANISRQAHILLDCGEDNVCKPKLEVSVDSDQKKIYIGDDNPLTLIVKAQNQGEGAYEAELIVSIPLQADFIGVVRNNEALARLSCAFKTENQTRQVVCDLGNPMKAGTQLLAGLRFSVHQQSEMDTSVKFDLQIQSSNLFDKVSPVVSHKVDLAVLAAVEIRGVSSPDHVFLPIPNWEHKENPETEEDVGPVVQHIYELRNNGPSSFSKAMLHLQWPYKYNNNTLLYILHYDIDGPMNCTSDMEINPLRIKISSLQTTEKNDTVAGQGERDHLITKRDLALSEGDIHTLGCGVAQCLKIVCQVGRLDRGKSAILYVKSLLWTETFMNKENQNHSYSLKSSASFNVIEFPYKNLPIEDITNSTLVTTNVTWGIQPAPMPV
- Sequence (P18564 22-707 limits assumed): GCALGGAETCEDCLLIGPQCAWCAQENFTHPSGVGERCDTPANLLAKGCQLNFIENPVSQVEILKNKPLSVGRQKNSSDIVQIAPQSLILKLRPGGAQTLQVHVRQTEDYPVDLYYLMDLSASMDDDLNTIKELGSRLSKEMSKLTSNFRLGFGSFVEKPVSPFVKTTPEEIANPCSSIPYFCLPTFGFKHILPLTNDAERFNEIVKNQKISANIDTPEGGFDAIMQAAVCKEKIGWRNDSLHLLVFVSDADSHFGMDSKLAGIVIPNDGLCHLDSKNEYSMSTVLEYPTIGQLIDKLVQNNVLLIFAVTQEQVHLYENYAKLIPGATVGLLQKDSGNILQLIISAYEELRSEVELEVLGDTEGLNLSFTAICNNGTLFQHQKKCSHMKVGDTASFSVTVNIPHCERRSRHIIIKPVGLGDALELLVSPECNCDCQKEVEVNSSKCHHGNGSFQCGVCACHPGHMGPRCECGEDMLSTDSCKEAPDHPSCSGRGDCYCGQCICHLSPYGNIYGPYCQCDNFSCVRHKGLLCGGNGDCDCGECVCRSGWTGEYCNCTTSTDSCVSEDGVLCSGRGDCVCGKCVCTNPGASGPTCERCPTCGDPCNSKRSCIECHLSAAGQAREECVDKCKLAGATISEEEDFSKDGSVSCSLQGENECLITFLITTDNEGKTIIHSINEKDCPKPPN
- Method notes: human αVβ6 HTRF binding assay
- Condition summary: alternatively SPA-based assay
One number for each entry, as −log10 of the molar value.

Examples from the recorded data:
[
  {
    "Molecule": "COc1ncc([C@H](CC(=O)O)NC(=O)[C@H]2C[C@H](CCc3ccc4c(n3)NCCC4)C2)cn1",
    "pIC50": 9.11
  },
  {
    "Molecule": "Cc1cc(C)c(S(=O)(=O)N[C@@H](CNC(=O)C2(F)CN(CCc3ccc4c(n3)NCCC4)C2)C(=O)O)c(C)c1",
    "pIC50": 9.22
  }
]

Okay, here is my list. What is pIC50 for each of these?
1. COc1ccc(C(CC(=O)O)C2CC(CCCCc3ccc4c(n3)NCCC4)C2)cn1 (single isomer, unassigned; diastereomer a) [Example 139]
2. COc1ccc([C@H](CC(=O)O)N2CC(CCCc3ccc4c(n3)NCCC4)C2=O)cn1 (single isomer, unassigned) [Example 182]
3. COc1ccc([C@H](CC(=O)O)N2CC(C)(CCCCc3ccc4c(n3)NCCC4)C2=O)cn1 (single isomer, unassigned) [Example 178]
4. O=C(O)C[C@@H](c1cc(F)cc(F)c1)N1CC(CCCCc2ccc3c(n2)NCCC3)C1

Response line:
[7.59, 8.24, 6.99, 8.85]

---

- Assay system: human αVβ3 (Homo sapiens, UniProt P05106+P06756)
- Sequence (P06756 31-992 limits assumed): as the sequence (P06756 31-992 limits assumed) above
- Sequence (P05106 27-718 limits assumed): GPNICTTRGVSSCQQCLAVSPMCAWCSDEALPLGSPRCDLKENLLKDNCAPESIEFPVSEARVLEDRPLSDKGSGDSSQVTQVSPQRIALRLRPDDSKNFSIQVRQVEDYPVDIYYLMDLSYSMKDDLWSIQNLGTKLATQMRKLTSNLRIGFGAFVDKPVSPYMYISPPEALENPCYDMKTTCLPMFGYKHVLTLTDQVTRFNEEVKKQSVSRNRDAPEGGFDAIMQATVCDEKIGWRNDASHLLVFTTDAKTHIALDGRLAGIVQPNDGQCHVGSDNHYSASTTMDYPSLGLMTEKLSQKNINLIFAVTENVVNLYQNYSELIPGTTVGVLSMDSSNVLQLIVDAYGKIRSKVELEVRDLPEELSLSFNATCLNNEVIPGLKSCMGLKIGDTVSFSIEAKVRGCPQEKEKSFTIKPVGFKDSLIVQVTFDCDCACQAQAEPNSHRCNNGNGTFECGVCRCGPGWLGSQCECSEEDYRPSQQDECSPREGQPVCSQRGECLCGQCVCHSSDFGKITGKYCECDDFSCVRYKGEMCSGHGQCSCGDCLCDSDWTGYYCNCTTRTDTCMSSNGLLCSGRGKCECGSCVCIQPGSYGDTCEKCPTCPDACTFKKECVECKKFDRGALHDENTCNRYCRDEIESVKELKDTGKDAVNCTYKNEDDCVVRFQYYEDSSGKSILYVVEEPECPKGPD
- Method notes: human αVβ3 HTRF binding assay
- Condition summary: alternatively SPA-based assay
Please go through the items and note down their pIC50.
Answers are plain numbers, as −log10 of the molar value.

[
  {
    "Molecule": "Cc1ncc([C@H](CC(=O)O)NC(=O)[C@H]2C[C@@H](CCc3ccc4c(n3)NCCC4)C2)cn1",
    "Assay system": "human αVβ3 (Homo sapiens, UniProt P05106+P06756)",
    "Test result": 8.42
  },
  {
    "Molecule": "O=C(N[C@@H](CNC(=O)[C@H]1C[C@H](CCc2ccc3c(n2)NCCC3)C1)C(=O)O)OCc1ccccc1",
    "Assay system": "human αVβ3 (Homo sapiens, UniProt P05106+P06756)",
    "Test result": 8.38
  },
  {
    "Molecule": "O=C(O)C[C@H](NC(=O)[C@H]1C[C@H](CCc2ccc3c(n2)NCCC3)C1)c1cncnc1",
    "Assay system": "human αVβ3 (Homo sapiens, UniProt P05106+P06756)",
    "Test result": 6.92
  },
  {
    "Molecule": "COc1ncc([C@H](CC(=O)O)N2CC(CCCCc3ccc4c(n3)NCCC4)C2=O)cn1 (stereo partly shown)",
    "Assay system": "human αVβ3 (Homo sapiens, UniProt P05106+P06756)",
    "Test result": 8.75
  },
  {
    "Molecule": "O=C(O)C[C@H](NC(=O)[C@H]1C[C@H](CCc2ccc3c(n2)NCCC3)C1)c1cnc2ccccc2c1",
    "Assay system": "human αVβ3 (Homo sapiens, UniProt P05106+P06756)",
    "Test result": 8.33
  },
  {
    "Molecule": "O=C(O)C[C@H](NC(=O)[C@H]1C[C@@H](CCc2ccc3c(n2)NCCC3)C1)c1cnc2ccccc2c1",
    "Assay system": "human αVβ3 (Homo sapiens, UniProt P05106+P06756)",
    "Test result": 8.68
  }
]

Turning to the following molecule.
pIC50 recorded for this molecule, O=C(O)C[C@@H](c1ccc2c(c1)CCO2)N1CC(CCCCc2ccc3c(n2)NCCC3)C1=O (stereo partly shown) , is 8.15
